Where do the numbers come from? From paper PMC3071016.

Molecular target: PKGIα (Homo sapiens, UniProt Q13976)
Sequence (Q13976 1-671): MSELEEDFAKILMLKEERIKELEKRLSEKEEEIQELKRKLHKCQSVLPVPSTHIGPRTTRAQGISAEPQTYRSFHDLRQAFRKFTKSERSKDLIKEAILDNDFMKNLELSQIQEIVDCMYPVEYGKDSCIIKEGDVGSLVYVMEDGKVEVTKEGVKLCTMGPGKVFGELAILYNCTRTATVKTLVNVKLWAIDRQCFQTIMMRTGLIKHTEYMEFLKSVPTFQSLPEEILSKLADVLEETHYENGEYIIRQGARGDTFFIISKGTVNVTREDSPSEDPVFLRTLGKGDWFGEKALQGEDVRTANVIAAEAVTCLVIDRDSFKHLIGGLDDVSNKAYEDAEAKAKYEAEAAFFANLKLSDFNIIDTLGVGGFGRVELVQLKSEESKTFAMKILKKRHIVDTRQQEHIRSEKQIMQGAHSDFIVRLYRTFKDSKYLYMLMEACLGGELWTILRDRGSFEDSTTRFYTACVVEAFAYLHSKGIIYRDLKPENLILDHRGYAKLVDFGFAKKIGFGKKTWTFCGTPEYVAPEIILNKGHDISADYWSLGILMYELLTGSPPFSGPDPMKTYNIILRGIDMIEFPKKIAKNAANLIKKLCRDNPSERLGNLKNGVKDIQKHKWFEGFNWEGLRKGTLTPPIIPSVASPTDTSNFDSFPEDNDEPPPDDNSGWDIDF
pIC50: −log10 of the molar value.

Structure smiles string: O=S(=O)(NCCNCC=Cc1ccc(Br)cc1)c1cccc2cnccc12
Target desc: PKGIα (Homo sapiens, UniProt Q13976)
pIC50: 5.52

###

target: PKGIα (Bos taurus); assay: Radioactive inhibition assay; format: biochemical, bovine; settings: read-out: inhibition IC50; 100 μM ATP, 11 μM substrate peptide, presence of cGMP

Molecule: NCCNS(=O)(=O)c1cccc2cnccc12 [H9]
Target desc: PKGIα (Bos taurus)
Unit label: nM
IC50: 141

###

Recorded pIC50 values for a group of molecules are listed next.
target: PKGIα (Bos taurus, UniProt P00516); assay: FI displacement assay; type: binding, bovine
Sequence (P00516 whole entry): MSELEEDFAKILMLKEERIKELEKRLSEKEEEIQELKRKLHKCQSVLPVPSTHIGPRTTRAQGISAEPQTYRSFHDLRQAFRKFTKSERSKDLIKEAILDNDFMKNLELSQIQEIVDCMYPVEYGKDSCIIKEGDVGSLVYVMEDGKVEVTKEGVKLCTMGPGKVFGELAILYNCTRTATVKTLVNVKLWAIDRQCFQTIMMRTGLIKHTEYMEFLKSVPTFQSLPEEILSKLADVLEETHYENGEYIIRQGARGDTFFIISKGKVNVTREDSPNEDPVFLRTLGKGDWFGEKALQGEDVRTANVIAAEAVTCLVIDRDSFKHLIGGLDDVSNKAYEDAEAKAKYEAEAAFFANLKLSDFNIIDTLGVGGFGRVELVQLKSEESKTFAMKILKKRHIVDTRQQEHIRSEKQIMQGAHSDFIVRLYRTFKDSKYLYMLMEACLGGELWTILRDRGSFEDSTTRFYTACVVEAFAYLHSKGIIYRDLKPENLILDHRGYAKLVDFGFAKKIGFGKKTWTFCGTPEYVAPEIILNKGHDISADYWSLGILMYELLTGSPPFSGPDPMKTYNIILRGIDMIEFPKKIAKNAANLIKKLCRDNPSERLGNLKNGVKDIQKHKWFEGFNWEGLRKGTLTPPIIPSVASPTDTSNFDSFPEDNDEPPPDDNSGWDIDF
pIC50: −log10 of the molar value.
Readout label: pIC50

Structure smiles string: CSCC[C@H](NC(=O)[C@H](C)NC(=O)[C@H](CC(C)C)NC(=O)[C@H](C)NC(=O)[C@H](CCCCN)NC(=O)[C@H](CCCCN)NC(=O)[C@H](CCCNC(=N)N)NC(=O)[C@H](CCCCN)NC(=O)[C@H](C)NC(=O)[C@H](CCC(N)=O)NC(=O)[C@@H](N)[C@@H](C)O)C(=O)N[C@@H](C)C(N)=O
Result value: 3.60
//
Structure smiles string: O=S(=O)(NCCNCC=Cc1ccc(Br)cc1)c1cccc2cnccc12
Result value: 5.96
